Conditions: in 2-butanone, 288.15 K
readout name: solubility (mole fraction)

1) CNC(=O)c1cc(Oc2ccc(NC(=O)Nc3ccc(Cl)c(C(F)(F)F)c3)cc2)ccn1    0.00856

* * *

Details: in cyclohexanone, 308.15 K
readout name: solubility (mole fraction)

1) CNC(=O)c1cc(Oc2ccc(NC(=O)Nc3ccc(Cl)c(C(F)(F)F)c3)cc2)ccn1    0.0229

* * *

Conditions: in n-propanol, 273.15 K
readout name: solubility (mole fraction)

1. CNC(=O)c1cc(Oc2ccc(NC(=O)Nc3ccc(Cl)c(C(F)(F)F)c3)cc2)ccn1    0.000756

* * *

Settings: in ethanol, 273.15 K
readout name: solubility (mole fraction)

1) CNC(=O)c1cc(Oc2ccc(NC(=O)Nc3ccc(Cl)c(C(F)(F)F)c3)cc2)ccn1    0.000645
